Test system: K. pneumoniae NCTC8172
Assay remarks: MIC susceptibility testing, broth microdilution in CaMHB
Assay type: cell-based, Klebsiella pneumoniae
Experimental conditions: Table 4
Structures can show the parent of a compound that is named as a salt. Where a SMILES comes first, the peptide text is derived from it. Bridges are numbered along the chain shown (N, C = ends). [ ]: non-standard residue; d: D form. The star is where a group is joined. ξ: configuration not given here. ξβ3hGly(cHex) = NC(CC(=O)*)C1CCCCC1; Thr(3ξ) = CC(O)[C@H](N)C(=O)O; Dab = NCC[C@H](N)C(=O)O; X2 = NC1CCCC1C(=O)*; X3 = O=C(C1CCNC1)*; βAla = NCCC(=O)O
Quantity name: MIC (micrograms/mL)
Quick note: give the figure in micrograms/mL, leave out the unit.

CC(C)C[C@@H]1NC(=O)[C@@H](Cc2ccccc2)NC(=O)[C@H](CCN)NC(=O)[C@@H](NC(=O)[C@H](CCN)NC(=O)[C@@H](NC(=O)CC(N)C2CCCCC2)C(C)O)CCNC(=O)[C@H](C(C)O)NC(=O)[C@H](CCN)NC(=O)[C@H](CCN)NC1=O (stereo partly drawn) [Example 14, Sulphate Salt] ({ξβ3hGly(cHex)}-[Thr(3ξ)][Dab][Dab][Dab][dF]L[Dab][Dab][Thr(3ξ)]; lactam 3-C) | 1
CC(C)C[C@@H]1NC(=O)[C@@H](Cc2ccccc2)NC(=O)[C@H](CCN)NC(=O)[C@@H](NC(=O)[C@H](CCN)NC(=O)[C@@H](NC(=O)CCN)C(C)O)CCNC(=O)[C@H](C(C)O)NC(=O)[C@H](CCN)NC(=O)[C@H](CCN)NC1=O (stereo partly shown) [Example 4, Sulphate Salt] (H-[βAla][Thr(3ξ)][Dab][Dab][Dab][dF]L[Dab][Dab][Thr(3ξ)]; lactam 4-C) | 2
CC(C)C[C@@H]1NC(=O)[C@@H](Cc2ccccc2)NC(=O)[C@H](CCN)NC(=O)[C@@H](NC(=O)[C@H](CCN)NC(=O)[C@@H](NC(=O)C2CCNC2)C(C)O)CCNC(=O)[C@H](C(C)O)NC(=O)[C@H](CCN)NC(=O)[C@H](CCN)NC1=O (stereo partly shown) [Example 13, Sulphate Salt] (X3-[Thr(3ξ)][Dab][Dab][Dab][dF]L[Dab][Dab][Thr(3ξ)]; lactam 3-C) | 4

Then this molecule:
Dear colleague, I am looking for the recorded MIC of the following molecule: CC(C)C[C@@H]1NC(=O)[C@@H](Cc2ccccc2)NC(=O)[C@H](CCN)NC(=O)[C@@H](NC(=O)[C@H](CCN)NC(=O)[C@@H](NC(=O)C2CCCC2N)C(C)O)CCNC(=O)[C@H](C(C)O)NC(=O)[C@H](CCN)NC(=O)[C@H](CCN)NC1=O (stereo partly shown) [Example 11, Sulphate Salt] (X2-[Thr(3ξ)][Dab][Dab][Dab][dF]L[Dab][Dab][Thr(3ξ)]; lactam 3-C)
2

====

Test system: E. coli ATCC25922
Assay remarks: MIC susceptibility testing, broth microdilution in CaMHB
Type: cell-based, Escherichia coli
Experimental conditions: Table 4
Counter-ions that a name gives are not always drawn. Where a SMILES comes first, the peptide text is derived from it. Bridges are numbered along the chain shown (N, C = ends). [ ]: non-standard residue; d: D form. The star is where a group is joined. ξ: configuration not given here. Thr(3ξ) = CC(O)[C@H](N)C(=O)O; Dab = NCC[C@H](N)C(=O)O; Aoc = NCCCCCCCC(=O)O; X6 = O=C(CCCCCCCO)*; Ahx = NCCCCCC(=O)O
Listed next: entries and their corresponding MIC.
Quick note: give the figure in micrograms/mL, leave out the unit.

CC(C)C[C@@H]1NC(=O)[C@@H](Cc2ccccc2)NC(=O)[C@H](CCN)NC(=O)[C@@H](NC(=O)[C@H](CCN)NC(=O)[C@@H](NC(=O)CCCCCCCN)C(C)O)CCNC(=O)[C@H](C(C)O)NC(=O)[C@H](CCN)NC(=O)[C@H](CCN)NC1=O (stereo partly drawn) [Example 9, Sulphate Salt] (H-[Aoc][Thr(3ξ)][Dab][Dab][Dab][dF]L[Dab][Dab][Thr(3ξ)]; lactam 4-C) | 2
CC(C)C[C@@H]1NC(=O)[C@@H](Cc2ccccc2)NC(=O)[C@H](CCN)NC(=O)[C@@H](NC(=O)[C@H](CCN)NC(=O)[C@@H](NC(=O)CCCCCCCO)C(C)O)CCNC(=O)[C@H](C(C)O)NC(=O)[C@H](CCN)NC(=O)[C@H](CCN)NC1=O (stereo partly drawn) [Example 8, Sulphate Salt] (X6-[Thr(3ξ)][Dab][Dab][Dab][dF]L[Dab][Dab][Thr(3ξ)]; lactam 3-C) | 2

Then this molecule:
Lab note: need MIC for CC(C)C[C@@H]1NC(=O)[C@@H](Cc2ccccc2)NC(=O)[C@H](CCN)NC(=O)[C@@H](NC(=O)[C@H](CCN)NC(=O)[C@@H](NC(=O)CCCCCN)C(C)O)CCNC(=O)[C@H](C(C)O)NC(=O)[C@H](CCN)NC(=O)[C@H](CCN)NC1=O (stereo partly drawn) [Example 7, Sulphate Salt] (H-[Ahx][Thr(3ξ)][Dab][Dab][Dab][dF]L[Dab][Dab][Thr(3ξ)]; lactam 4-C) on E. coli ATCC25922, anyone have it?
2
